Reference for the values: paper PMC3561992

tested_on: T1, AtCyp59 full-length (Arabidopsis thaliana, UniProt Q6Q151 1-506)
T1 sequence: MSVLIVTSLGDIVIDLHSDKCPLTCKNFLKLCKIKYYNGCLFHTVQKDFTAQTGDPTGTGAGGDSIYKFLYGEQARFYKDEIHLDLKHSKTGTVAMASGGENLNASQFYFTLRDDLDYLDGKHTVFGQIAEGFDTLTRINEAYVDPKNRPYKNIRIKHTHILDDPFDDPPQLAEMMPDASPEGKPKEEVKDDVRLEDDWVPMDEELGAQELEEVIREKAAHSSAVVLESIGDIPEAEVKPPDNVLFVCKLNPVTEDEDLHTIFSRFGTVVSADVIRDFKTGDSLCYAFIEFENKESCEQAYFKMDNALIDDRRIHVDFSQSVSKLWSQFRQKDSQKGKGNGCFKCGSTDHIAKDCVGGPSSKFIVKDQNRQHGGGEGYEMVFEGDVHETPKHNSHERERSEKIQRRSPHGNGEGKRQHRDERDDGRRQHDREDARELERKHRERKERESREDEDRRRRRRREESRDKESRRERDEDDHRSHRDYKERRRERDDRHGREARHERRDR
assay_summary: EMSA
Parameter: Kd. Scope: all listed entries.

binder: GCUGCCG (ssRNA)
Kd: 120 nM

binder: GUAGCCG (ssRNA)
Kd: 120 nM

binder: GCGGCCG (ssRNA)
Kd: 120 nM

binder: GAUGCCG (ssRNA)
Kd: 120 nM
